What follows is a collection of Ki values obtained with hCB1 (Homo sapiens, UniProt P21554).
Sequence (P21554 whole entry): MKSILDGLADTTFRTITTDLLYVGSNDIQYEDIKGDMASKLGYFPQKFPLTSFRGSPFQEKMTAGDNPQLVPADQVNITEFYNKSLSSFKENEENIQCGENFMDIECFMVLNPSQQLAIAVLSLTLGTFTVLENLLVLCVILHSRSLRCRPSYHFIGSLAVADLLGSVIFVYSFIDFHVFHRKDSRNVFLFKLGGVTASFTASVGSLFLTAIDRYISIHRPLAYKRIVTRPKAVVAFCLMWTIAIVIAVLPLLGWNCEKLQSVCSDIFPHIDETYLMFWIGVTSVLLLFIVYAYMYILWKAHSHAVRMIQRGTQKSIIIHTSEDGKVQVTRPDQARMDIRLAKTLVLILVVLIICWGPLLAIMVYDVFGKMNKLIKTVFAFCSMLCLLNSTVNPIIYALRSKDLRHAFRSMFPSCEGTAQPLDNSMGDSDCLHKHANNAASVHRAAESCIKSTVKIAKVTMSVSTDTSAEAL
Answers are plain numbers, in nM.

(Q) Form field: reported Ki of CONC(=O)[C@@H](NC(=O)c1nn(-c2c[n+]([O-])ccn2)c2c1C[C@H]1C[C@@H]21)C(C)(C)C [Compound 755]
(A) 1200

Next item in the queue.
(Q) Form field: reported Ki of CNC(=O)[C@@H](NC(=O)c1nn(-c2c[n+]([O-])ccn2)c2c1C[C@@H]1C[C@H]21)C(C)(C)C [Compound 701]
(A) 105

* * *

target.or.system: hCB1 (Homo sapiens)
measurement.protocol: HTRF assay for direct cAMP measurement, CB1
Assay type: cell-based
Set-up: 93-0164 (CHO-K1 EA-Arrestin parental line); host or cells: CHO-K1 EA-Arrestin, clone #3
Provide the reported EC50 of each item.
Answers are plain numbers, in µM.

(Q) Form field: reported EC50 of `CNC(=O)[C@@H](NC(=O)c1nn(-c2cnccn2)c2c1C[C@H]1C[C@@H]21)C(C)(C)C`
(A) 0.195

Next item in the queue.
(Q) Form field: reported EC50 of `CC(C)(CO)NC(=O)c1nn(-c2ccc(Cl)cn2)c2c1C[C@H]1C[C@@H]21`
(A) 72.5

* * *

target.or.system: human CB2 receptor (Homo sapiens, UniProt P34972)
Sequence (P34972 whole entry): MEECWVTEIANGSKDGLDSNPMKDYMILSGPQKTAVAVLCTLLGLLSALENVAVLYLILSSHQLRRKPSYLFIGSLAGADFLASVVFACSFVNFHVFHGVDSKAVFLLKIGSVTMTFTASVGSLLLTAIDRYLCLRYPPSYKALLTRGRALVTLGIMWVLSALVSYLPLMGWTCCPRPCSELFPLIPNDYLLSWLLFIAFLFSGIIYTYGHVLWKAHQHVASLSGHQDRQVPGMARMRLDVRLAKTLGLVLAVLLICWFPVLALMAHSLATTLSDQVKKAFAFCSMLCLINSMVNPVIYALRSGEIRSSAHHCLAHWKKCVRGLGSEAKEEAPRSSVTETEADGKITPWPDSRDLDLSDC
measurement.protocol: PathHunter β-arrestin assay, CB2
Provide the reported EC50 of each item.
Answers are plain numbers, in µM.

Worked examples follow.
(Q) Param readout= EC50; system= human CB2 receptor (Homo sapiens, UniProt P34972); entry= CNC(=O)[C@@H](NC(=O)c1nn(-c2cnccn2)c2c1C[C@H]1C[C@@H]21)C(C)(C)C [Compound 667] ; returns value.
(A) 0.00153

(Q) Let us now turn to CC(C)[C@@H](CO)NC(=O)c1nn(-c2c[n+]([O-])ccn2)c2c1C[C@H]1C[C@@H]21 [Compound 690]
(A) 0.031

Give EC50 for all compounds that follow.
1. CC(C)(C)[C@@H](COP(=O)(O)O)NC(=O)c1nn(-c2cnccn2)c2c1C[C@H]1C[C@@H]21 [Compound 683]
2. CC(C)(C#N)NC(=O)c1nn(-c2cc(Cl)ccn2)c2c1C[C@H]1C[C@@H]21 [Compound 625]
3. CC(CO)(CO)NC(=O)c1nn(-c2cc(C#N)ccn2)c2c1C[C@H]1C[C@@H]21 [Compound 820]
4. O=C(N[C@H]1c2ccccc2C[C@H]1O)c1nn(-c2c[n+]([O-])ccn2)c2c1C[C@@H]1C[C@H]21 [Compound 921]
5. O=C(NC1(C(F)(F)F)CCC1)c1nn(-c2c[n+]([O-])ccn2)c2c1C[C@@H]1C[C@H]21 [Compound 765]
6. O=C(NC1(CO)CC1)c1nn(-c2ccc(Cl)cc2Cl)c2c1C[C@H]1C[C@@H]21 [Compound 174]
7. CC(C)(C)[C@H](NC(=O)c1nn(-c2c[n+]([O-])ccn2)c2c1C[C@@H]1C[C@H]21)c1ccccn1 [Compound 767]

(A)
3
0.0118
0.0384
0.00259
0.00116
0.167
0.0666

* * *

target.or.system: human CB2 receptor (Homo sapiens, UniProt P34972)
measurement.protocol: HTRF assay for direct cAMP measurement, CB2
Assay type: cell-based
Parameters: 93-0164 (CHO-K1 EA-Arrestin parental line); host or cells: CHO-K1 EA-Arrestin, clone #61
property.measured: pEC50
Numbers only, as −log10 of the molar value.

Worked examples follow.
(Q) Form field: reported pEC50 of `O=C(NC1(c2ccccn2)CCC1)c1nn(-c2c[n+]([O-])ccn2)c2c1C[C@@H]1C[C@H]21`
(A) 8.50

(Q) Let us now turn to `CC(C)(C)NC(=O)c1nn(-c2cnccn2)c2c1C[C@H]1C[C@@H]21`
(A) 8.15

Next item in the queue.
(Q) Form field: reported pEC50 of `CC(C)(CO)NC(=O)c1nn(-c2cnc(C#N)cn2)c2c1C[C@H]1C[C@@H]21`
(A) 8.00

* * *

target.or.system: UniProt P34972
measurement.protocol: HTRF assay for direct cAMP measurement, CB2
Format: cell-based
Design: 93-0164 (CHO-K1 EA-Arrestin parental line); host or cells: CHO-K1 EA-Arrestin, clone #61
property.measured: EC50 (nM)
One number for each entry, in nM.

Give EC50 for all molecules that follow.
1. CC(C)(C)[C@@H](CO)NC(=O)c1nn(-c2cnccn2)c2c1C[C@H]1C[C@@H]21
2. O=C(NC1(CF)CCC1)c1nn(-c2c[n+]([O-])ccn2)c2c1C[C@@H]1C[C@H]21
3. CC(C)(CO)NC(=O)c1nn(-c2cc(C#N)ccn2)c2c1C[C@H]1C[C@@H]21

(A)
[4.38, 0.8, 0.7]

* * *

target.or.system: human CB2 receptor (Homo sapiens, UniProt P34972)
measurement.protocol: HTRF assay for direct cAMP measurement, CB2
Type: cell-based
Parameters: 93-0164 (CHO-K1 EA-Arrestin parental line); host or cells: CHO-K1 EA-Arrestin, clone #61
property.measured: EC50 (nM)
Answers are plain numbers, in nM.

Give EC50 for all compounds that follow.
1. CC(C)(C)[C@@H](CO)NC(=O)c1nn(-c2cnccn2)c2c1C[C@@H]1C[C@H]21
2. CNC(=O)[C@@H](NC(=O)c1nn(-c2cnccn2)c2c1C[C@H]1C[C@@H]21)C(C)(C)C
3. O=C(NC1(CO)CC1)c1nn(-c2ccc(Cl)cc2Cl)c2c1C[C@H]1C[C@@H]21

(A)
6.89
0.3
38.2

Give EC50 for all compounds that follow.
1. CC(C)(CO)NC(=O)c1nn(-c2ccc(F)cn2)c2c1C[C@H]1C[C@@H]21
2. O=C(NC1(C(F)(F)F)CCC1)c1nn(-c2c[n+]([O-])ccn2)c2c1C[C@@H]1C[C@H]21

(A)
1. 19
2. 0.1

(Q) Param readout= EC50; system= human CB2 receptor (Homo sapiens, UniProt P34972); entry= `CC(C)(C#N)NC(=O)c1nn(-c2cc(Cl)ccn2)c2c1C[C@H]1C[C@@H]21` ; returns value.
(A) 4.45
